Species on record: Homo sapiens
protocol description: To identify inhibition of the IFN signalling (Jak-Stat) pathway via expression of an eGFP reporter gene under the control of an IFN-stimulated response element (ISRE) containing MxA promoter.
Type: functional
Parameters: scale not given: direction of the effect not stated beside the values
condition set: 30 µM
readout: Percent Effect (%)
Provide only the numeric value, understood in %.

Query block: Using the record for CN1CCC(NC(=O)NCCNc2ccccn2)CC1 , report its Percent Effect.
Result block: 5.52

Query block: Next entry: CCC1c2ccsc2CCN1C(=O)NCc1ccccn1 (configuration not stated)
Result block: 10.8

Query block: Then what about the compound CN(C)c1cc(C(=O)N2CCN(c3cnccn3)CC2)ccn1 ?
Result block: 3.38

Query block: Follow-up item: CC(C)CN1CCC(NC(=O)c2ccc(F)cc2I)CC1
Result block: -5.59

Query block: Then what about the compound Cc1nc(COC[C@@H]2CCC[C@@]23CNCCO3)cs1 ?
Result block: 8.21

Query block: Okay, and Cc1nn(C)c(N(C)C)c1CNCC(O)COc1ccccc1 (configuration not stated) ?
Result block: -13.8

Query block: Would you mind doing O=C(c1ccc(F)cc1F)N1C[C@@H](O)[C@H](N2CCOCC2)C1 as well?
Result block: 2.56

Query block: CN(Cc1ccon1)C(=O)C1CC(=O)N(Cc2ccncc2)C1 (configuration not stated) , same question.
Result block: 14.7

Query block: Cool, now Cc1ccoc1C(=O)N1CC[C@H]2O[C@@H](C)C[C@H]2C1
Result block: 2.95

Query block: How about this compound: Cc1ccccc1CSc1nc(N)cc(N2CCOC(C(N)=O)C2)n1 (configuration not stated)
Result block: 22.4

Query block: Follow-up entry: CCCNC(=O)NCc1cccnc1OC
Result block: 18.8

Query block: Input Cn1c(Cn2cccn2)nnc1C1CCCN(c2ccncc2F)C1 (configuration not stated)
Result block: 27.1

Query block: Try this compound next: O=C([C@H]1C[C@H]2OCC[C@H]2N(CCc2ccccc2)C1)N1CCCCO1
Result block: -14.2

Query block: Moving on to the next compound: CN(Cc1ccsc1)C(=O)Nc1ccc(S(=O)(=O)N(C)C)cc1
Result block: -7.23

Query block: Entry COCCc1noc(CNCC2CCCN2c2cccnn2)n1 (configuration not stated) please
Result block: 2.37

Query block: Now consider O=C(c1ccc(Br)o1)N1CCN(Cc2ccc(OC(F)(F)F)cc2)CC1 .
Result block: 37.2

Query block: Try this compound next: Cc1n[nH]c(C2CN(C(=O)Cn3ccccc3=O)CCO2)n1 (configuration not stated)
Result block: 1.57

Query block: Also, COc1ccc(Br)c(C(=O)NCC2CCN(C(=O)c3ccoc3)CC2)c1 please.
Result block: 7.16

Query block: Proceed to CN(C)S(=O)(=O)N1CCN(C(=O)c2ccc3ccn(C)c3c2)CC1
Result block: 5.78

Query block: Try the compound COc1ccc(CCN2CCCC(Cn3nc(C)nc3C)C2)cc1 (configuration not stated)
Result block: -4.76

Query block: Now the same for Cc1n[nH]c(C)c1C1CCCN1C(=O)NCCSC(C)(C)C (configuration not stated)
Result block: 4.14

Query block: Okay, and CC(=O)NCCc1ccc(C(=O)N2CCCC2c2cnn(C)c2)cc1 (configuration not stated) ?
Result block: 1.72

Query block: Then what about the compound c1cncc(C2COC3(CCN(CC4CC4)CC3)C2)c1 (configuration not stated) ?
Result block: -13.5

Query block: # iterate: CC(=O)Nc1nc(C(=O)N2CCCC2c2ccccc2C)cs1 (configuration not stated)
Result block: 31.4

Query block: CN1CCc2onc(CNc3ncccn3)c2C1 , same question.
Result block: 3.62

Query block: Now this one: CC(C)n1ccnc1C1CCN(C(=O)C2COc3ccccc3O2)CC1 (configuration not stated)
Result block: -5.55

Query block: And for Cc1noc(C)c1CCC(=O)N1CCCN(Cc2cscn2)CC1 ?
Result block: 23

Query block: Try the compound O=C(NCCN1CCCCC1)c1scnc1Cl
Result block: 3.91

Query block: Next entry: COc1cccc(-c2noc(C3CCN(Cc4cn(C)nc4C)C3)n2)c1 (configuration not stated)
Result block: 31.6

Query block: Now the same for CCCOCCCNc1nccc(-c2cn(C)nc2C)n1
Result block: 36.5

Query block: Here is the next compound: Cc1cc(C)n(C2CCCN(C(=O)Cc3csc(C)n3)C2)n1 (configuration not stated)
Result block: -6.53

Query block: What about this compound? COCc1nc(N(C)C)ncc1C(=O)NC(C)C
Result block: -5.53

Every entry's value here was drawn from ChEMBL document CHEMBL3988442.
